System: RXRa homodimer (NR concentration 180 nM)
Test: PBM binding z-score (relative to random genomic background probes); higher = stronger binding; sequences stand for … in GC…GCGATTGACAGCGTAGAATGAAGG
observable: PBM binding z-score
// response body must contain only the number

input: Query PBM binding z-score for `CCTTACGGGTCACTGACAGGTTATAGCGTTTGGA`
output: 5.06

input: Query PBM binding z-score for `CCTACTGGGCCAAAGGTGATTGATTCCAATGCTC`
output: 0.624

input: Query PBM binding z-score for `ATCGAAAGGTCGACGCGGTGAGTATACACCGTTT`
output: 3.83

input: Query PBM binding z-score for `ATCAAAAGGTCGAGGTGAGTATAGAGAAAGGGAA`
output: 4.83

input: Query PBM binding z-score for `TATAAAGGGTCAAAGGCCAGAGTACGAATGTCGA`
output: 7.08

input: Query PBM binding z-score for `TCTGCTAGGTCAACGATGGTCAGTTAATCTGCTA`
output: 2.5
